B1: ANKRD9 (parent)
chain: LLEDMRASEAFHWDERGRAAAYSP

variants of: B1; test: protein stability index of a GFP-peptide fusion (GPS, HEK-293T) (PSI 1-6); higher = more stable; conditions: c terminus: a fixed tail appended;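 further: lentivirally expressed fusions sorted by FACS into six bins by GFP to DsRed ratio, PSI derived from sequencing read proportions per bin multiplied by bin number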
protein stability index values, listed per item
Reported property: protein stability index

• LLEDMRASEAHHWDERGRAAAYSP [F11H] = 2.66
• LLEDMRASEAFHWDESGRAAAYSP [R16S] = 1.44
• LLEDLRASEAFHWDERGRAAAYSP [M5L] = 1.6
• LLEDMRASEADHWDERGRAAAYSP [F11D] = 3.58
• LLEDMRASEAFEWDERGRAAAYSP [H12E] = 1.83
• CLEDMRASEAFHWDERGRAAAYSP [L1C] = 3.2
• LLEDMRASSAFHWDERGRAAAYSP [E9S] = 3
• LLEDMRASEAFHWDERGVAAAYSP [R18V] = 2.36
• LLEDMRAMEAFHWDERGRAAAYSP [S8M] = 3.04
• LLEDMRASEAFHWDERGRQAAYSP [A19Q] = 1.22
• LLEDMRAREAFHWDERGRAAAYSP [S8R] = 2.88
• LLEDMRASECFHWDERGRAAAYSP [A10C] = 1.39
• LFEDMRASEAFHWDERGRAAAYSP [L2F] = 2.53
• LLEDMRASEAFHWDPRGRAAAYSP [E15P] = 1.88
• LLEDMRASEAFHNDERGRAAAYSP [W13N] = 2.2
• LPEDMRASEAFHWDERGRAAAYSP [L2P] = 4.37
• LLEDMRASRAFHWDERGRAAAYSP [E9R] = 2.77
• LLEDMRASEAFHWDERGRAAAYGP [S23G] = 1.68
• LLEDMRASEAFHWDERGRFAAYSP [A19F] = 1.54
• LLYDMRASEAFHWDERGRAAAYSP [E3Y] = 1.55
• HLEDMRASEAFHWDERGRAAAYSP [L1H] = 4.71
• LLEDMRCSEAFHWDERGRAAAYSP [A7C] = 1.8
